Assay System: T1, FGFR2b on SNU-16 and MFM-223 cells (human, UniProt P21802 22-821)
T1 chain: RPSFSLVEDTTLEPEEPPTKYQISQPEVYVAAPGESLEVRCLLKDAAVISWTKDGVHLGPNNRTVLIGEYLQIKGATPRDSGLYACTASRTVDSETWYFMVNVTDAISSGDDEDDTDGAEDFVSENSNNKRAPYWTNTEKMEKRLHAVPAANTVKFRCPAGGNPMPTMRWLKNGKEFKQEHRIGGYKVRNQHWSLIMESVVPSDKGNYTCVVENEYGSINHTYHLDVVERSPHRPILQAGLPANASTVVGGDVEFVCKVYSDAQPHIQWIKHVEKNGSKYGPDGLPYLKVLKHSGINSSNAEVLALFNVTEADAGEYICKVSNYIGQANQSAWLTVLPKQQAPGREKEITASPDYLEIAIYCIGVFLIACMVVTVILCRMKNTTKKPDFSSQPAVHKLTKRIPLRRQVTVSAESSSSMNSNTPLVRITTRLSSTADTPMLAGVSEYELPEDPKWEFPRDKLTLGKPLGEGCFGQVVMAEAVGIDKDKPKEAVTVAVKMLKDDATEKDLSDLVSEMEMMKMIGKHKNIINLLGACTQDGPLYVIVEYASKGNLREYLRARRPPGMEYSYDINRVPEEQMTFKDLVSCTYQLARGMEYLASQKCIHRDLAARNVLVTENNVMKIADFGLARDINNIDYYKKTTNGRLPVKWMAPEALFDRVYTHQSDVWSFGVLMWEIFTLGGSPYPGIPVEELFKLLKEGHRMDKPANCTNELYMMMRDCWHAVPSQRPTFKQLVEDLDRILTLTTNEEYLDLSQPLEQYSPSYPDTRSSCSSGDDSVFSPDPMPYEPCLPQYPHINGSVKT
Protocol Summary: cell-based or functional assay
Readout Label: Max % Kill, MFM-223 cells
Hi, when you answer, please include the unit after the number. Thanks!

Recorded Max % Kill, MFM-223 cells, per entry:
>>> reported_value("mAb1-maytansinoid 1ALP (antibody, V domains shown, maytansinoid 1ALP (mc-VC-PAB-NMe-C3-May) linker-payload conjugated; residues not stated in Example 5; DAR 2.5 per antibody, it is written on the heavy chain only for want of a better place) VH: QVQLVESGGGVVQPGRSLRLSCAASGFTFSSYGMHWVRQAPGKGLEWVAVIWYDGSNKYYADSVKGRFTISRDNSKNTLYLQMNSLRAEDTAVYYCAREESSASGVDYWGQGTLVTVSS VL: EIVLTQSPGTLSLSPGERATLSCRASQSVSTRYLAWYQQKRGQAPRLLIYGASSRATGIPDRFSGSGSGTDFTLTISRLEPEDFAVYYCQEYGSSSITFGQGTRLEIKR")
"85.5%"
>>> reported_value("mAb2-maytansinoid 1ALP (antibody, V domains shown, maytansinoid 1ALP (mc-VC-PAB-NMe-C3-May) linker-payload conjugated; residues not stated in Example 5; DAR 1.9 per antibody, it is written on the heavy chain only for want of a better place; also called FGFR2 maytansinoid ADC) VH: QVQLVESGGGVVQPGKSLRLSCAASGFTFSNYGMHWVRQTPVKGLEWVTLIWYDGSNKYYTDSVKGRFTISRDNSKNTLYLQMNSLRSEDTAVYYCAREGNWNYGHAFDIWGQGTMVTVSS VL: DIQMTQSPSTLSASVGDRVTITCRASQNIGNWLAWYQQKPGKAPNLLIYKASTLESGVPSRFSGSGSGTEFTLTISSLQPDDFATYNCQQYNSYSPTFGQGTKLEIKR")
"91.1%"
>>> reported_value("mAb1-tubulysin 1ALP (antibody, human IgG4 S228P, kappa, V domains shown, deglycosylated; Q295 carries azido-PEG3-amine clicked to Tubulysin 1A-LP; DAR 2.1 per antibody, also called Anti FGFR2 mAb1-PEG3-N3-Tubulysin 1A-LP) VH: QVQLVESGGGVVQPGRSLRLSCAASGFTFSSYGMHWVRQAPGKGLEWVAVIWYDGSNKYYADSVKGRFTISRDNSKNTLYLQMNSLRAEDTAVYYCAREESSASGVDYWGQGTLVTVSS VL: EIVLTQSPGTLSLSPGERATLSCRASQSVSTRYLAWYQQKRGQAPRLLIYGASSRATGIPDRFSGSGSGTDFTLTISRLEPEDFAVYYCQEYGSSSITFGQGTRLEIKR")
"91.1%"

Below: the item to evaluate.
Need Max % Kill, MFM-223 cells, item mAb2-tubulysin 1ALP (antibody, V domains shown, deglycosylated; Q295 carries azido-PEG3-amine clicked to Tubulysin 1A-LP; DAR 2.1 per antibody, also called Anti FGFR2 mAb2-PEG3-N3-Tubulysin 1A-LP) VH: QVQLVESGGGVVQPGKSLRLSCAASGFTFSNYGMHWVRQTPVKGLEWVTLIWYDGSNKYYTDSVKGRFTISRDNSKNTLYLQMNSLRSEDTAVYYCAREGNWNYGHAFDIWGQGTMVTVSS VL: DIQMTQSPSTLSASVGDRVTITCRASQNIGNWLAWYQQKPGKAPNLLIYKASTLESGVPSRFSGSGSGTEFTLTISSLQPDDFATYNCQQYNSYSPTFGQGTKLEIKR
90%
